assay: yeast display, Sf9 membrane polyspecificity reagent, FACS + sequencing; frameworks hold sequencing errors
parameter: polyreactivity (PSR sort gate)

>  <record sequence>
QVKLVESGGGLDQAGGSLRLSCAASGSTILQTAMGGYRQAPGKARELVASISRGGSTNYADSVKGRFTISRDNAKTSVYLQMNSLKPEDTEVYFCATRSRRSASPVVYHAYYYWGQGTHVTVSS

>  <parameter>
polyreactivity (PSR sort gate)

>  <assay result>
high polyreactivity

$$$$
>  <record sequence>
QVQLVESGRGLVQEGGSLRLSCAPSGSTFTSYAMGWSRQAPGKERELVAAINYSGGSTNYADSVKGRFTLSRDNAMNTVYLQMNSLKPEDTAVYYFNVVRRSPGDYSYYYWGQGTQVTVSS

>  <parameter>
polyreactivity (PSR sort gate)

>  <assay result>
low polyreactivity

$$$$
>  <record sequence>
QVQLLESGVGLVQAGGSLRLSCAASGFSFGAYTLGWYRQAPRKERELVAAIRGSGGSTYYADSVKGRFTISRDNAKNTVYFQINSLKPDDTAVYYCAKTLTYGFRRYDYWGQGTQVTVSS

>  <parameter>
polyreactivity (PSR sort gate)

>  <assay result>
high polyreactivity

$$$$
>  <record sequence>
QVQLVESGGGLVQAGGSLRLSCAASGRTFTYYAMGWYRPAPGKERELVARITTDGSSTYYADSVKGRFTISRDNAKNTVYLQMNSLKPEDTAVYYCAADFQYAIHTDMDYWGQGTQVTVSS

>  <parameter>
polyreactivity (PSR sort gate)

>  <assay result>
high polyreactivity

$$$$
>  <record sequence>
QVQLVESGGGLVQAGGSLRLSCAASGLIFNIYAMGWYRQAPGKERELVAAISKSGGSTYYADSVKGRFTISRDNAKNTVYLQMNSLKPEDTAVYYCAVRSMRVDKYGYWGQGTQVTVSS

>  <parameter>
polyreactivity (PSR sort gate)

>  <assay result>
high polyreactivity

$$$$

Hello, I would appreciate it if you could give polyreactivity (PSR sort gate) for each entry below.
1. QVQLEESGGGLVQAGGSLRLSCAASGSIIYENTMGWYRQAPGKERELVAAISASGGSTEYADSVKGRFTISRDNEKNTVYLQMKSLKPEDTGVYYCAADACAFYFGGDYWGLGTQVTVSS
2. QVQLVESGGGLVQAGGSLRLSCAASGFIFYHYAMGWYRQAPGKERELVAAISWSGGSTYYADSVKGRFTISRDNAKNTVYLQMNSLKPEDTAVYYCAAANTNRFPYGYWGQGTQVTVSS
3. QVQLVESGGGLVQAGGSLRLSCAASGFTFFHNAMGWYRPAPGKERELVAAITSGGNTYYADSVKGRFTISRDNAKNTVYLQMNSLKPEDTAVYYCAASFWSSGQWYDYWGQGTQVTVSS
4. QVQLLESGGRLVQAGRSLRLSCAASGRTFGPYAMGWYRQAPGKEREFVAAISSRGGRTYYADSVKGRFTISRDNAKNTVYLQLNSLKPEDTAVYYCAAEYNYSNKYLYLFLQMDYWGQGSQVTVSS
5. QVQLVESGGGLVQAGGSLRLSCAASGFTFRKNVMGWYRQATGKERELVAVISSSGGSTYYADSVKGRFTISRDNAKNTVYLPMNRLKPEVTAVYYCNAGRYGSNLEYWGQGTQLTVSS

Response:
1. low polyreactivity
2. high polyreactivity
3. high polyreactivity
4. low polyreactivity
5. low polyreactivity

Cited source: the nanobody polyreactivity screen of Harvey et al. (2022)
